STUDY_SYSTEM: FLK-1 receptor (Mus musculus, UniProt P35918)
Construct: expressed in transfected cells; host or cells: NIH3T3 C7#3
Sequence (P35918 20-1345): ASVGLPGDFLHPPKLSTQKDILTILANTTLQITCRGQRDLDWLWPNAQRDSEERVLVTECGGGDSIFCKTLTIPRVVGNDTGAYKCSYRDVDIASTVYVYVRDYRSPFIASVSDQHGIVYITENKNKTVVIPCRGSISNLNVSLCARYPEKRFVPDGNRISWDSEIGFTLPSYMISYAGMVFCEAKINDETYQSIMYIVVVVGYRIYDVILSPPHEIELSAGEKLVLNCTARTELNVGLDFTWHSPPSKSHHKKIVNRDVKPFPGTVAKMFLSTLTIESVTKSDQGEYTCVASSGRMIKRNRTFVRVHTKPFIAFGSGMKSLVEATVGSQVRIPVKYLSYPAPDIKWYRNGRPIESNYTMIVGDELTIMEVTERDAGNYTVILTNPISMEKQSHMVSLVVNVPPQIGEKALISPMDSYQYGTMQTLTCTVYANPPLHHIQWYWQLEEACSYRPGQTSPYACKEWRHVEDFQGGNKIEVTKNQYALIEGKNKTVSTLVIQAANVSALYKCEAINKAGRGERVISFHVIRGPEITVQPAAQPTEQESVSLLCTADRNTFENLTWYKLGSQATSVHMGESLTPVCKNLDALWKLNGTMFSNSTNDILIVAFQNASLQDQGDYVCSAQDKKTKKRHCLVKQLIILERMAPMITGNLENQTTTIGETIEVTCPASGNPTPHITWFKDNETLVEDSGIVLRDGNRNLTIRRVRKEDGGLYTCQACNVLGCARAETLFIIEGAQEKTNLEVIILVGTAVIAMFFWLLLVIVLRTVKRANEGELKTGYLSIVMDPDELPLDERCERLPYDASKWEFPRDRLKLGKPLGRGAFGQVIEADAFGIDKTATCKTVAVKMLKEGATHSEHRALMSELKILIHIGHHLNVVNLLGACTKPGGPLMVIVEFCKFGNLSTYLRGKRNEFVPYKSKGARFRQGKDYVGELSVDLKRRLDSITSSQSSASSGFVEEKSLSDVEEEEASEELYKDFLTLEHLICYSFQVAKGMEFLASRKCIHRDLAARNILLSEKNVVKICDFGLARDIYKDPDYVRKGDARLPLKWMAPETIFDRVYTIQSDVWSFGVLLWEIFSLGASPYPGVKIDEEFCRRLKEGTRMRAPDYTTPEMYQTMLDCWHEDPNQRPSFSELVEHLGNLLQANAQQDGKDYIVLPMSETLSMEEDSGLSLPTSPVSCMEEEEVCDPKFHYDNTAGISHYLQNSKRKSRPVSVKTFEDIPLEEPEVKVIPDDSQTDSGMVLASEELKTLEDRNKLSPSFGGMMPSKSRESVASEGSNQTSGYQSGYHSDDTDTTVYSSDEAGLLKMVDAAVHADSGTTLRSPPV
EXPERIMENTAL_DETAILS: FLK-1 ELISA (kinase activity of the FLK-1 receptor in FLK-1/NIH3T3 cells, VEGF stimulated)
Assay type: cell-based
Labelling field: enter 1 (yes) if recorded Fik Kinase %Inhibition is less than 10%. Enter 0 (no) if it equals or exceeds that cut-off.

Examples from the recorded data:
MOLECULE_SMILES	ASSIGNED_CLASS
Cn1c(C=C2C(=O)Nc3c(Br)cc(Br)cc32)nc2ccccc21	0 (no)
O=C1Nc2ccc(S(=O)(=O)Nc3ccc(C(F)(F)F)cc3)cc2C1=Cc1cc(Cl)cc(Br)c1O	0 (no)
O=C1Nc2c(Br)cc(Br)cc2C1=Cc1cc(Cl)ccc1O	1 (yes)
Cc1c(Br)ccc2c1C(=Cc1cc3c(cc1Cl)OCO3)C(=O)N2	1 (yes)
COc1cc(C=C2C(=O)Nc3ccc(I)cc32)cc(OC)c1OC	0 (no)

Hello, is Fik Kinase %Inhibition of the following compound strictly smaller than 10%? `O=C1Nc2ccc(I)cc2C1=Cc1ccccc1Br` 1 (yes)

Field: below-cutoff. Rule: recorded Fik Kinase %Inhibition strictly less than 10%. Subject: `O=C1Nc2ccc(CCCl)cc2C1=Cc1ccc([N+](=O)[O-])s1` 1 (yes)

In the record for `CNS(=O)(=O)c1ccc2c(c1)C(=Cc1ccc(N(C)C)cc1)C(=O)N2` , is Fik Kinase %Inhibition less than 10%? 1 (yes)

Decide: Fik Kinase %Inhibition of `CNS(=O)(=O)c1ccc2c(c1)C(=Cc1ccccc1Br)C(=O)N2` strictly below 10%? 0 (no)

Quick check: Fik Kinase %Inhibition of `CNS(=O)(=O)c1ccc2c(c1)C(=Cc1ccc(O)cc1OC)C(=O)N2` under 10%? 0 (no)

API: query returns whether the compound falls strictly under 10% in Fik Kinase %Inhibition. Query: `CNS(=O)(=O)c1ccc2c(c1)C(=Cc1ccc(N3CCCC3)cc1)C(=O)N2` 1 (yes)

API: query returns whether the compound falls strictly under 10% in Fik Kinase %Inhibition. Query: `COc1ccc(C=C2C(=O)Nc3ccc(Br)c(C)c32)cc1C(C)(C)C` 0 (no)

For this compound, is Fik Kinase %Inhibition lower than 10%? `CNS(=O)(=O)c1ccc2c(c1)C(=Cc1ccc(F)cc1Cl)C(=O)N2` 1 (yes)

# check: Fik Kinase %Inhibition < 10% for `CNS(=O)(=O)c1ccc2c(c1)C(=Cc1c(F)cccc1C(F)(F)F)C(=O)N2` 0 (no)
